Tested Target: CXCR7 (Homo sapiens)
Sequence (P25106 whole entry): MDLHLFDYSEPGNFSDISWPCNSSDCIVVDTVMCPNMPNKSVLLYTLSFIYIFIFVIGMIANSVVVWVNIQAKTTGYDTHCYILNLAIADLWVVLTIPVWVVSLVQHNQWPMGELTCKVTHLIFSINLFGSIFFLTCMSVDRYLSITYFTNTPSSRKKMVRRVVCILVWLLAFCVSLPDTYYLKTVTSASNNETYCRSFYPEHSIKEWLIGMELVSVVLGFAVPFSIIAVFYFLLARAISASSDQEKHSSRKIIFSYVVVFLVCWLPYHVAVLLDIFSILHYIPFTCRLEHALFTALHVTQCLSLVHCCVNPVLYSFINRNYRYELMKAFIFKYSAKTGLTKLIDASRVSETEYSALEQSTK
Assay Comment: CXCR7 β-arrestin recruitment assay in CHO-CXCR7 cells (ProLink/EA β-galactosidase complementation), induced by human SDF-1a
Condition Set: assay buffer, SDF-1a at EC50 concentration
pIC50: −log10 of the molar value.
Measured Quantity: pIC50

**Q:** Which pIC50 is reported for this molecule? CC(C)(NC(=O)CC1(NC(=O)c2cc(-c3ccc(F)cc3F)on2)CN([C@H]2CC[C@@](C)(O)CC2)C1)c1ccc(F)cc1Cl
**A:** 7.00 to 8.30

**Q:** Which pIC50 is reported for this molecule? CC(C)(O)CN1CC(CC(=O)NC(C)(C)c2ccc(Cl)cc2)(NC(=O)c2cc(-c3ccc(F)cc3F)on2)C1
**A:** 6.00 to 7.00

**Q:** Which pIC50 is reported for this molecule? COc1cccnc1C(C)(C)NC(=O)CC1(NC(=O)c2nnc(-c3ccc(F)cc3F)s2)CN([C@H]2CC[C@](C)(O)CC2)C1
**A:** 7.00 to 8.30

**Q:** Which pIC50 is reported for this molecule? CC1(CN2CC(CC(=O)NC(C)(C)c3cccc(C(F)(F)F)n3)(NC(=O)c3cc(-c4ccc(F)cc4F)on3)C2)COC1
**A:** 4.70 to 6.00

**Q:** Which pIC50 is reported for this molecule? CC(C)(NC(=O)CC1(NC(=O)c2cc(-c3ccc(F)cc3F)on2)CN([C@H]2CC[C@](C)(O)CC2)C1)c1ccc(F)cc1Cl
**A:** 7.00 to 8.30

**Q:** Which pIC50 is reported for this molecule? CC(C)(NC(=O)CC1(NC(=O)c2cc(-c3ccc(F)cc3F)on2)CN([C@H]2CC[C@](C)(O)CC2)C1)c1ccc(F)cc1
**A:** 7.00 to 8.30

###

Tested Target: CXCR7 (Homo sapiens)
Assay Comment: CXCR7 β-arrestin recruitment assay in CHO-CXCR7 cells (ProLink/EA β-galactosidase complementation), induced by human SDF-1a
Condition Set: assay buffer, SDF-1a at EC50 concentration
Measured Quantity: IC50

**Q:** Which IC50 is reported for this compound? Cc1cc(C(C)(C)NC(=O)CC2(NC(=O)c3cc(-c4ccc(F)cc4F)on3)CN(CC3(O)CCC3)C2)ccn1
**A:** 100 to 1000 nM

**Q:** Which IC50 is reported for this compound? Cc1cc(C)nc(C(C)(C)NC(=O)CC2(NC(=O)c3cc(-c4ccc(F)cc4F)on3)CN(C3CCOC(C)(C)C3)C2)n1 (stereo not drawn)
**A:** 5 to 100 nM

**Q:** Which IC50 is reported for this compound? Cc1cncc(C(C)(C)NC(=O)CC2(NC(=O)c3cc(-c4ccc(F)cc4F)on3)CN([C@H]3CC[C@](C)(O)CC3)C2)c1
**A:** 5 to 100 nM

**Q:** Which IC50 is reported for this compound? Cc1cc(C(F)(F)F)cc(C(C)(C)NC(=O)CC2(NC(=O)c3cc(-c4ccc(F)cc4F)on3)CN([C@H]3CC[C@](C)(O)CC3)C2)n1
**A:** 5 to 100 nM

**Q:** Which IC50 is reported for this compound? COC1CCCCC1N1CC(CC(=O)NC(C)(C)c2ccccn2)(NC(=O)c2cc(-c3ccc(F)cc3F)on2)C1 (stereo not drawn)
**A:** < 5 nM

**Q:** Which IC50 is reported for this compound? Cc1cc(C(C)(C)NC(=O)CC2(NC(=O)c3cc(-c4ccc(F)cc4F)on3)CN(CC(C)C)C2)ccn1
**A:** 5 to 100 nM
